# Test system: RAW-Dual (murine macrophage reporter line)
# test: viability score (confluency relative to resting cells, overnight) (fraction); higher = more viable, active = viable (0.7 or more)
# applied_conditions: modulator concentration 10 µM

{"molecule": "O=Cc1c[nH]c2ccccc12", "viability score": 0.985}
{"molecule": "COc1cc(NC(=O)COc2cc(C)c(Cl)c(C)c2)cc(OC)c1", "viability score": 1}
{"molecule": "COc1ccc(C2N3CC4(C)CN2CC(C)(C3)C4O)cc1 (stereo not given)", "viability score": 1.01}
{"molecule": "NC(=O)c1ncn(C2OC(CO)C(O)C2O)n1 (stereo not given)", "viability score": 0.999}
{"molecule": "CCC(=O)Nc1ccc(S(=O)(=O)N2CCCC(Cc3nc(C4CC4)no3)C2)c(C)c1 (stereo not given)", "viability score": 0.961}
{"molecule": "Nc1cccc(O)c1", "viability score": 0.997}
{"molecule": "O=C(OC1Cc2c(O)cc(O)cc2OC1c1cc(O)c(O)c(O)c1)c1cc(O)c(O)c(O)c1 (stereo not given)", "viability score": 1.01}
{"molecule": "CCOc1ccc(C=C2SC(=S)N(C)C2=O)cc1", "viability score": 1.01}
{"molecule": "COc1ccc(-c2[nH]c3ccccc3c2SCCNC(=O)c2ccccc2)cc1", "viability score": 0.966}
{"molecule": "O=C(O)CCC(=O)O.O=C(O[C@H]1CN2CCC1CC2)N1CCc2ccccc2[C@@H]1c1ccccc1", "viability score": 0.992}
{"molecule": "Cc1cc(C)nc(NS(=O)(=O)c2ccc(NC(=O)C=Cc3cccc4ccccc34)cc2)n1", "viability score": 0.956}
{"molecule": "Cc1ccc(C(=O)NC(=Cc2ccccc2)C(=O)NCCCn2ccnc2)cc1", "viability score": 1.01}
{"molecule": "NC[C@H]1CC[C@H](C(=O)O)CC1", "viability score": 0.999}
{"molecule": "Cc1c(C)c2c(c(C)c1O)CCC(C)(C(=O)O)O2 (stereo not given)", "viability score": 0.998}
{"molecule": "Br.Cc1ccc(-c2csc(N3N=C(c4ccc(F)cc4)CC3c3ccc(C(C)C)cc3)n2)cc1C (stereo not given)", "viability score": 1}
{"molecule": "CCCNCC(O)COc1ccccc1C(=O)CCc1ccccc1 (stereo not given)", "viability score": 0.826}
{"molecule": "O=C(Nc1ccc([N+](=O)[O-])cc1Cl)c1ccc([N+](=O)[O-])cc1", "viability score": 1.01}
{"molecule": "Cc1cc2ncc3c(n2n1)CCN(C(=O)c1cnoc1C)C3", "viability score": 0.896}
{"molecule": "Nc1ccc(S(=O)(=O)NCCO)cc1", "viability score": 1}
{"molecule": "COc1ccc(C)c2sc(NC(=O)c3ccco3)nc12", "viability score": 0.971}
{"molecule": "O=Cc1ccc(OCc2cccc([N+](=O)[O-])c2)c(Br)c1", "viability score": 1}
{"molecule": "O=C(Nc1cc2c(cc1Cl)OCCO2)c1cc(Cl)ccc1O", "viability score": 1.01}
{"molecule": "CCOc1ccc(C(=O)NCc2cccnc2)cc1Br", "viability score": 0.999}
{"molecule": "CCOc1ccc2c(c1)C(c1ccccc1C(F)(F)F)CC(=O)N2 (stereo not given)", "viability score": 0.995}
{"molecule": "CCOC(=O)C1=C(C)NC(C)=C(C(=O)OC)C1c1ccc([N+](=O)[O-])cc1 (stereo not given)", "viability score": 0.985}
{"molecule": "FC(F)(F)c1ccnc(NC2CCN(c3ncnc4c3CCCC4)CC2)n1", "viability score": 0.318}
{"molecule": "Cl.Cn1cc(C(=O)[C@@H]2CCc3nc[nH]c3C2)c2ccccc21", "viability score": 0.997}
{"molecule": "O=C(c1ccccc1)c1ccc2n1CCC2C(=O)O (stereo not given)", "viability score": 0.996}
{"molecule": "CC(=O)NC(Cc1c[nH]c2ccccc12)C(=O)O (stereo not given)", "viability score": 0.995}
{"molecule": "Cc1ccc(NC(=O)c2ccccc2Oc2ccccc2)cc1", "viability score": 1}
